# experimental-system: PI3K gamma (Homo sapiens (Human), UniProt P48736)
# Sequence (P48736 whole entry): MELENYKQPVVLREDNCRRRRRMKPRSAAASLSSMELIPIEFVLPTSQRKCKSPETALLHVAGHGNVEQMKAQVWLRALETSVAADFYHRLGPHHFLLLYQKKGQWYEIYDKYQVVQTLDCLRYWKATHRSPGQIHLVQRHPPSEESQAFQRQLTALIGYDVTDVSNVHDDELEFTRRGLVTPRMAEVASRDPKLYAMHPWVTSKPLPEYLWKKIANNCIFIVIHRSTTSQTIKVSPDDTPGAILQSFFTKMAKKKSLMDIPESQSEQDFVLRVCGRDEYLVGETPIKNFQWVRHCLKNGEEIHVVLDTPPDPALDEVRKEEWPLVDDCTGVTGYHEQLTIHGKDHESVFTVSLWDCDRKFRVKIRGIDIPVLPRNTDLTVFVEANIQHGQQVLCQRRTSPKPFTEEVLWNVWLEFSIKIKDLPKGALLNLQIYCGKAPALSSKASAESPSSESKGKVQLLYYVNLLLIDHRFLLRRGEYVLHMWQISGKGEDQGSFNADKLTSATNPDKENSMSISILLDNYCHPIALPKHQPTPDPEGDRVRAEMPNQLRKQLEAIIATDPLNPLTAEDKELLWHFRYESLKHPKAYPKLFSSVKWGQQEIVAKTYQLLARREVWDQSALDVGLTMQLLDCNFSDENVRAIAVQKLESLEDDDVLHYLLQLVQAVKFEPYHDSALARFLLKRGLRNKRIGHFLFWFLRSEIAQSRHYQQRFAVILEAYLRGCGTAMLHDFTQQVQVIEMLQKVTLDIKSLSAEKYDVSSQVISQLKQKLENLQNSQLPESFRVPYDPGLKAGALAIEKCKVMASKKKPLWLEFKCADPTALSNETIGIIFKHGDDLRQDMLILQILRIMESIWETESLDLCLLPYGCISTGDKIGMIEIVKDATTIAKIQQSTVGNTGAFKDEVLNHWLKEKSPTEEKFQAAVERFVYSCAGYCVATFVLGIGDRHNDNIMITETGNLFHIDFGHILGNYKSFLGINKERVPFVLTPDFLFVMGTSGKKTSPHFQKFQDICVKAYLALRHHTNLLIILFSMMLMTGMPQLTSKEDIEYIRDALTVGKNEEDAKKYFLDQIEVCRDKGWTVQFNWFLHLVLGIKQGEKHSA
endpoint-label: pIC50
The meaning of pIC50 here: minus log10 of the concentration in molar units.

As a guide, the following entries are already answered.
Req: Find pIC50 (PI3K gamma (Homo sapiens (Human), UniProt P48736)) for the entry Cc1nc(N)nc(N2C[C@@H](F)C[C@H]2c2nc3cccc(-c4cnn(C)c4)c3c(=O)n2-c2ccccc2)c1C#N
Resp: 7.62

Req: Another: Cc1nc(N)nc(N2CCC[C@H]2c2nc3ccc(F)c(-c4cnn(C)c4)c3c(=O)n2-c2ccccc2)c1C#N
Resp: 7.25

Req: Another: Cc1nc(N)nc(N2CCC[C@H]2c2nc3cccc(-c4cncnc4)c3c(=O)n2-c2ccccc2)c1C#N
Resp: 6.03

Req: Another: COc1cncc(-c2cccc3nc([C@@H]4CCCN4c4nc(N)nc(C)c4C#N)n(-c4ccccc4)c(=O)c23)c1
Resp: 7.05

Req: Another: Cn1cc(-c2c(F)ccc3nc([C@@H]4CCCN4c4ncnc(N)c4C#N)n(-c4ccccc4)c(=O)c23)cn1
Resp: 7.07

Continuing:
Req: Find pIC50 (PI3K gamma (Homo sapiens (Human), UniProt P48736)) for the entry CCOc1ncc(-c2cccc3nc([C@@H]4CCCN4c4nc(N)nc(C)c4C#N)n(-c4ccccc4)c(=O)c23)cn1
Resp: 6.85

Req: Another: Cc1nc(N)nc(N2C[C@@H](O)C[C@H]2c2nc3cccc(-c4cccnc4)c3c(=O)n2-c2ccccc2)c1C#N
Resp: 7.09

Req: Another: Cn1cc(-c2cccc3nc([C@@H]4CCCN4c4ncnc(N)c4C#N)n(-c4ccccc4)c(=O)c23)cn1
Resp: 6.82

====

# experimental-system: human phosphoinositide-3 kinase (PI3K) alpha (Homo sapiens (Human), UniProt P42336)
# Sequence (P42336 whole entry): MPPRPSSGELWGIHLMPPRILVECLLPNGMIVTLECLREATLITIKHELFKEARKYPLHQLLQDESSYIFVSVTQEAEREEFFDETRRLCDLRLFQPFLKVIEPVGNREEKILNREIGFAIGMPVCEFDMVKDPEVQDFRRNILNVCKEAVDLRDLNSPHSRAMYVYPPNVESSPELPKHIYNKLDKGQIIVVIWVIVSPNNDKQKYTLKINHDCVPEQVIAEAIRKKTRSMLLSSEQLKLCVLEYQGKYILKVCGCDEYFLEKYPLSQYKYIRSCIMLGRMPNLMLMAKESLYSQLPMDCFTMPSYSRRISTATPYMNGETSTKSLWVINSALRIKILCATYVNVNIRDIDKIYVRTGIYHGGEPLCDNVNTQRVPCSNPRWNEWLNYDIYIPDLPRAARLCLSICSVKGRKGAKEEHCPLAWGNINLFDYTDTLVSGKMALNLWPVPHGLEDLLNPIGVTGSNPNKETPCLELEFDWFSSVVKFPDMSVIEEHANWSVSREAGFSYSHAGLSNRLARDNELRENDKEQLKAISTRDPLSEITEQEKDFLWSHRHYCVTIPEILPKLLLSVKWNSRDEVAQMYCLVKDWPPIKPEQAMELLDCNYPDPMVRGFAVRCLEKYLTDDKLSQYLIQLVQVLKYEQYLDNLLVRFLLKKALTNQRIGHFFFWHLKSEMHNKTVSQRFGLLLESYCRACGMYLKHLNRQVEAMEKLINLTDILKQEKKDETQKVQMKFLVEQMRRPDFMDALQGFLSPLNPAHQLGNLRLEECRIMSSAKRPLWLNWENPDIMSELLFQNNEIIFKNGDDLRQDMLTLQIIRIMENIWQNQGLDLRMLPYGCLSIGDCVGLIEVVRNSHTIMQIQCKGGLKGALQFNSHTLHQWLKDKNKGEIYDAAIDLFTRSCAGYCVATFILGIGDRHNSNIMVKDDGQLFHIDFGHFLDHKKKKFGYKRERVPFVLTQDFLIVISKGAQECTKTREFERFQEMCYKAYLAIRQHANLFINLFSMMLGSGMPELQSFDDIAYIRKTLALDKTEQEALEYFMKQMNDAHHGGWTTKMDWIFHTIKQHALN
# Sequence (Q63787 whole entry partner): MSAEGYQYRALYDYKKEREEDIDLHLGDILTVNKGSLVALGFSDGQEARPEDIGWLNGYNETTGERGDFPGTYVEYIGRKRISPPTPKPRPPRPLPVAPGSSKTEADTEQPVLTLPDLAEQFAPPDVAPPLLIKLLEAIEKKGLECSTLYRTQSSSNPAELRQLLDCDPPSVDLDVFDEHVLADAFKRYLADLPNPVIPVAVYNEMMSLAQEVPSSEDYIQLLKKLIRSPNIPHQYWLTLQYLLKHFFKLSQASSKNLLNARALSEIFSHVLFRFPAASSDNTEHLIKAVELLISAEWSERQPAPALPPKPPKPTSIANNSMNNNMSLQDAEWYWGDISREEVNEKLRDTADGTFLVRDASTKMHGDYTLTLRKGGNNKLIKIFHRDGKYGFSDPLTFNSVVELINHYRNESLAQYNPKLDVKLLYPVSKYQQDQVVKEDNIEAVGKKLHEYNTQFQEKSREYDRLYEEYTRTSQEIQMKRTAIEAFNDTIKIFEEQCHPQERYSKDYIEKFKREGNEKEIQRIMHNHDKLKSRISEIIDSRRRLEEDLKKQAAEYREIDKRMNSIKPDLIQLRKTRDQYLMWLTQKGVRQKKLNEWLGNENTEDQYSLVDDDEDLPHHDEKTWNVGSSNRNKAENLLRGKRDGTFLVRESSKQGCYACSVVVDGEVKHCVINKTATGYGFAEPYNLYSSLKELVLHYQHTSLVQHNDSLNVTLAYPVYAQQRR
# procedure-summary: PI3K-mediated Akt 1/2 (S473) phosphorylation in Rat-1 cells overexpressing PI3K alpha
# details: cellular assay, p-AKT(Ser473), read-out: Cell PI3K alpha IC50
endpoint-label: IC50 (µM)
Give your result in µM as a bare value.

As a guide, the following entries are already answered.
Req: Entry under review: COc1cncc(-c2cccc3nc([C@@H]4C[C@H](O)CN4c4nc(N)nc(C)c4C#N)n(-c4ccccc4)c(=O)c23)c1 [Example 25] . Reported IC50?
Resp: 1.9

Req: Another: N#Cc1c(N)ncnc1N1CCC[C@H]1c1nc2cccc(C#CCO)c2c(=O)n1-c1ccccc1 [Example 33]
Resp: 6.5

Req: Another: Cc1nc(N)nc(N2CCC[C@H]2c2nc3ccc(F)c(-c4cnn(C)c4)c3c(=O)n2-c2ccccc2)c1C#N [Example 6]
Resp: 1.4

Continuing:
Req: Entry under review: CO[C@H]1C[C@@H](c2nc3cccc(-c4cnn(C)c4)c3c(=O)n2-c2ccccc2)N(c2nc(N)nc(C)c2C#N)C1 [Example 10] . Reported IC50?
Resp: 3.9

====

Parameter IC50: see the listing below.
# experimental-system: PI3K delta (Homo sapiens (Human))
# procedure-summary: Biochemical assay for PI3Kdelta (Adapta TR-FRET format)
# details: enzymatic assay
Give your result in nM as a bare value.

As a guide, the following entries are already answered.
Req: Find IC50 (PI3K delta (Homo sapiens (Human))) for the entry Cc1nc(N)nc(N2C[C@@H](O)C[C@H]2c2nc3ccc(F)c(-c4cn(C)cn4)c3c(=O)n2-c2ccccc2)c1C#N
Resp: 13

Req: Another: Cc1nc(N)nc(N2C[C@@H](O)C[C@H]2c2nc3cccc(-c4cncnc4)c3c(=O)n2-c2ccccc2)c1C#N
Resp: 6

Req: Another: COc1cncc(-c2cccc3nc([C@@H]4CCCN4c4nc(N)nc(C)c4C#N)n(-c4ccccc4)c(=O)c23)c1
Resp: 14

Req: Another: COc1ncc(-c2cccc3nc([C@@H]4C[C@H](OC)CN4c4nc(N)nc(C)c4C#N)n(-c4ccccc4)c(=O)c23)cn1
Resp: 5

Req: Another: CO[C@H]1C[C@@H](c2nc3cccc(-c4cnn(C)c4)c3c(=O)n2-c2ccccc2)N(c2nc(N)nc(C)c2C#N)C1
Resp: 6

Continuing:
Req: Find IC50 (PI3K delta (Homo sapiens (Human))) for the entry CO[C@H]1C[C@@H](c2nc3cccc(-c4cnn(C)c4)c3c(=O)n2-c2ccccc2)N(c2nc(N)nc3[nH]cnc23)C1
Resp: 45

Req: Another: Cc1nc(N)nc(N2C[C@@H](F)C[C@H]2c2nc3cccc(-c4cnn(C)c4)c3c(=O)n2-c2ccccc2)c1C#N
Resp: 14

====

Parameter pIC50: see the listing below.
# experimental-system: human phosphoinositide-3 kinase (PI3K) alpha (Homo sapiens (Human))
# procedure-summary: PI3K-mediated Akt 1/2 (S473) phosphorylation in Rat-1 cells overexpressing PI3K alpha
# details: cellular assay, p-AKT(Ser473), read-out: Cell PI3K alpha IC50
The meaning of pIC50 here: minus log10 of the concentration in molar units.

Req: Entry under review: Cc1nc(N)nc(N2CCC[C@H]2c2nc3cccc(-c4cncnc4)c3c(=O)n2-c2ccccc2)c1C#N . Reported pIC50?
Resp: 5.24

Req: Another: Cc1nc(N)nc(N2C[C@@H](O)C[C@H]2c2nc3cccc(-c4cnn(C)c4)c3c(=O)n2-c2ccccc2)c1C#N
Resp: 5.57

Req: Another: COc1cncc(-c2cccc3nc([C@@H]4CCCN4c4nc(N)nc(C)c4C#N)n(-c4ccccc4)c(=O)c23)c1
Resp: 6.38

Continuing:
Req: Entry under review: Cn1cc(-c2c(F)ccc3nc([C@@H]4CCCN4c4ncnc(N)c4C#N)n(-c4ccccc4)c(=O)c23)cn1 . Reported pIC50?
Resp: 5.52

Req: Another: Cc1nc(N)nc(N2C[C@@H](O)C[C@H]2c2nc3cccc(-c4cccnc4)c3c(=O)n2-c2ccccc2)c1C#N
Resp: 5.30

Req: Another: COc1ncc(-c2cccc3nc([C@@H]4CCCN4c4ncnc(N)c4C#N)n(-c4ccccc4)c(=O)c23)cn1
Resp: 5.17

Req: Another: Cn1cc(-c2c(F)ccc3nc([C@@H]4C[C@H](O)CN4c4ncnc(N)c4C#N)n(-c4ccccc4)c(=O)c23)cn1
Resp: 5.49

Req: Another: Cc1nc(N)nc(N2CCC[C@H]2c2nc3cccc(-c4cccnc4)c3c(=O)n2-c2ccccc2)c1C#N
Resp: 5.82

Req: Another: COc1ccc(-c2cccc3nc([C@@H]4C[C@H](O)CN4c4nc(N)nc(C)c4C#N)n(-c4ccccc4)c(=O)c23)cn1
Resp: 5.89

Req: Another: CCOc1ncc(-c2cccc3nc([C@@H]4CCCN4c4nc(N)nc(C)c4C#N)n(-c4ccccc4)c(=O)c23)cn1
Resp: 5.62

Req: Another: Cn1cc(-c2cccc3nc([C@@H]4CCCN4c4ncnc(N)c4C#N)n(-c4ccccc4)c(=O)c23)cn1
Resp: 5.89

Req: Another: COc1ccc(-c2cccc3nc([C@@H]4CCCN4c4nc(N)nc(C)c4C#N)n(-c4ccccc4)c(=O)c23)cn1
Resp: 5.60

Req: Another: COc1ncc(-c2c(F)ccc3nc([C@@H]4C[C@H](O)CN4c4nc(N)nc(C)c4C#N)n(-c4ccccc4)c(=O)c23)s1
Resp: 6.17

Req: Another: COc1ncc(-c2cccc3nc([C@@H]4CCCN4c4nc(N)nc(C)c4C#N)n(-c4ccccc4)c(=O)c23)cn1
Resp: 5.55

Req: Another: COc1ncc(-c2c(F)ccc3nc([C@@H]4C[C@H](O)CN4c4nc(N)nc(C)c4C#N)n(-c4ccccc4)c(=O)c23)cn1
Resp: 5.33

Req: Another: Cc1ncc(-c2cccc3nc([C@@H]4CCCN4c4nc(N)nc(C)c4C#N)n(-c4ccccc4)c(=O)c23)cn1
Resp: 5.27

Req: Another: Cc1nc(N)nc(N2CCC[C@H]2c2nc3cccc(-c4cnn(C)c4)c3c(=O)n2-c2ccccc2)c1C#N
Resp: 5.96

Req: Another: CCOc1ncc(-c2c(F)ccc3nc([C@@H]4C[C@H](O)CN4c4nc(N)nc(C)c4C#N)n(-c4ccccc4)c(=O)c23)cn1
Resp: 5.57

====

# experimental-system: PI3K delta (Homo sapiens (Human), UniProt O00329)
# Sequence (O00329 2-1044): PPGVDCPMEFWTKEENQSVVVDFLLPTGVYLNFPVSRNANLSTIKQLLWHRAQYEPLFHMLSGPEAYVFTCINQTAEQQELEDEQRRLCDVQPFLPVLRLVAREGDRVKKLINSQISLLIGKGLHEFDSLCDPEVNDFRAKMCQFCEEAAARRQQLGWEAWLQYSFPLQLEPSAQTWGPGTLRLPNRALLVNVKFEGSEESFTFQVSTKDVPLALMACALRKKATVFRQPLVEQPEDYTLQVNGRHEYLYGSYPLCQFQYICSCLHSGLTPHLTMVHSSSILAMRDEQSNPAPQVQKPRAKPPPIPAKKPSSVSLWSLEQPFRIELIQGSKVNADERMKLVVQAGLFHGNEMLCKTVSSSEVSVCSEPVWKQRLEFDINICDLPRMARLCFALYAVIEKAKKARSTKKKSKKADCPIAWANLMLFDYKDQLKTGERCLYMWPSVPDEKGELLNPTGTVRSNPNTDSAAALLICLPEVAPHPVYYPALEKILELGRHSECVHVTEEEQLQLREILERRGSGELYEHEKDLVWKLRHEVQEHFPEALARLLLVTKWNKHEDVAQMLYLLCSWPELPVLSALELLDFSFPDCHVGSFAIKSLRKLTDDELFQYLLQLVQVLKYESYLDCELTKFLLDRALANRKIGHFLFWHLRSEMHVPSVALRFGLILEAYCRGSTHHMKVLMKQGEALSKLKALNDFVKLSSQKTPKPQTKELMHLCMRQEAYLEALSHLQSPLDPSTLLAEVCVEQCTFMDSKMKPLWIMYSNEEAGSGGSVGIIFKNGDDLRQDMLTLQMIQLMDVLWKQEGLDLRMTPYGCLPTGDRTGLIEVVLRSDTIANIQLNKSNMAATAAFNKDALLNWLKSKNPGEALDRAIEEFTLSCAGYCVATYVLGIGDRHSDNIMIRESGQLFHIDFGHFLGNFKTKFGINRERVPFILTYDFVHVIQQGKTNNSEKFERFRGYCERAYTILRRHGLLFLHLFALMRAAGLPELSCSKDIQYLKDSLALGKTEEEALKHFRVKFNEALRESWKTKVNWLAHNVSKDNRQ
# Sequence (P27986 461-568 partner): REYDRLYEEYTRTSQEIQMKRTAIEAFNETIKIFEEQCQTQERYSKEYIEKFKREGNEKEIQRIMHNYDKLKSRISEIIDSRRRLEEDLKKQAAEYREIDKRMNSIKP
# procedure-summary: Biochemical assay for PI3Kdelta (Adapta TR-FRET format)
# details: enzymatic assay
pIC50: −log10 of the molar value.
Lab note: compare pIC50 against 8. Equal or greater, write condition met. Smaller, write condition not met.

Answered cases to consult:
Req: Quick check, pIC50 >= 8? COc1ccc(-c2cccc3nc([C@@H]4CCCN4c4nc(N)nc(C)c4C#N)n(-c4ccccc4)c(=O)c23)cn1
Resp: condition not met

Req: Another: COc1cncc(-c2cccc3nc([C@@H]4C[C@H](O)CN4c4nc(N)nc(C)c4C#N)n(-c4ccccc4)c(=O)c23)c1
Resp: condition met

Req: Another: Cc1nc(N)nc(N2CCC[C@H]2c2nc3cccc(-c4cncnc4)c3c(=O)n2-c2ccccc2)c1C#N
Resp: condition not met

Req: Another: Cc1ccccc1-n1c([C@@H]2CCCN2c2ncnc(N)c2C#N)nc2cccc(-c3cnn(C)c3)c2c1=O
Resp: condition not met

Please examine the following record next.
Req: Quick check, pIC50 >= 8? COc1ncc(-c2cccc3nc([C@@H]4C[C@H](O)CN4c4nc(N)nc(C)c4C#N)n(-c4ccccc4)c(=O)c23)cn1
Resp: condition met
